Quick reference for apparent Kd among some sequences
System: MS2 coat protein
Experiment Notes: apparent Kd, MS2 coat protein; higher = weaker binding; RNA-MaP array; theophylline 2 mM where present
Measurement Context: ligand present: theophylline; designed as: ON switch for theophylline

[
  {
    "Macromolecule Sequence": "UCUUUCUUUGUAGAUACCAGCGUGUUAUCUUUCUUUUGACAUGAGGAUCACCCAUGUAUAUGCCCUUGGCAGCUACAUAUUCUUU",
    "apparent Kd": "14.2 nM"
  },
  {
    "Macromolecule Sequence": "AGUGUUAUAACUGAUACCAGACCUUUGCUUAUACAUGAGGAUCACCCAUGUAAAAUGGCUGUCCCUUGGCAGCAGAGAAUACACA",
    "apparent Kd": "16.5 nM"
  },
  {
    "Macromolecule Sequence": "UCUCGGUCUUUCUUUCUCCGAGAAUAUGAUACCAGUUAGUUUUAUGGCCCUUGGCAGCAUAGAACAUGAGGAUCACCCAUGUGUU",
    "apparent Kd": "108 nM"
  },
  {
    "Macromolecule Sequence": "UAAAAUAAUAAUGAUACCAGCCCUCCCUCCCGGGACAUGAGGAUCACCCAUGUCUCUCCCGGCCCUUGGCAGCAUAAAUAAUAAU",
    "apparent Kd": "14.2 nM"
  }
]

###

System: MS2 coat protein
Experiment Notes: apparent Kd, MS2 coat protein; higher = weaker binding; RNA-MaP array
Measurement Context: ligand present: flavin mononucleotide; designed as: ON switch for flavin mononucleotide
Quick reference for apparent Kd among some sequences
Assay Metric: apparent Kd

[
  {
    "Macromolecule Sequence": "CAGGUUCGUACAGGAUAUGGUUACAUGAGGAUCACCCAUGUGCGGUGAGCUGAUUAGUGCACAGUCCAGAAGGGUAGGAUAACA",
    "Assay Value": "684 nM"
  },
  {
    "Macromolecule Sequence": "GCUAAUCCAGGAGGAUAUAGGUUCUUUUCUACACAUGAGGAUCACCCAUGUGCAUCCCGGCGUACCUAGAAGGCCUGUCUAAAA",
    "Assay Value": "15.5 nM"
  },
  {
    "Macromolecule Sequence": "GGACGCCAUAUAGAGGAUAUUAAUGUCGACACAUGAGGAUCACCCAUGUCCCACUCGGGCGAACAUAAGAAGGCUAAUCAGACGUA",
    "Assay Value": "10.5 nM"
  },
  {
    "Macromolecule Sequence": "UUACUACAUGAGGAUCACCCAUGUGAAAAUUAAACGAAAAGUUAGGAUAUGAAUGGAAAUGCACCUCAGAAGGAACGCGACAAG",
    "Assay Value": "16.9 nM"
  },
  {
    "Macromolecule Sequence": "AUUGAACGUGCAGGAUAUCAAAACCGGAAUCGUUGAGAAGGGCAGUAAUCGGAGAGCACAUGAGGAUCACCCAUGUUCAAUCGA",
    "Assay Value": "9.32 nM"
  },
  {
    "Macromolecule Sequence": "UGUUACAUGAGGAUCACCCAUGUCAGAUGGUCUGGCUAUUACAGAAGGAAUAAAGAACGUCGAGAUUAGGAUAUGUGUAGAUGA",
    "Assay Value": "31.8 nM"
  },
  {
    "Macromolecule Sequence": "GCGGUACAUGAGGAUCACCCAUGUGAUUUAACAGGUUUCAUCAGAAGGACUCACGGUUUGCGACAGUAGGAUAUGAAGGGUAAG",
    "Assay Value": "24.6 nM"
  }
]

###

Quick reference for apparent Kd among some sequences
Test system: MS2 coat protein
Experiment Notes: apparent Kd, MS2 coat protein; higher = weaker binding; RNA-MaP array; tryptophan 2.4 mM where present
Measurement Context: ligand present: tryptophan; designed as: ON switch for tryptophan

[
  {
    "Macromolecule Sequence": "CGACUGUAAAGUCGACCGGUCAUCAAUAAUCGAGGACCGGUACGGCCGCCACUCGAUGUGAUUUCACAUGAGGAUCACCCAUGUA",
    "System Tested": "MS2 coat protein",
    "apparent Kd (nM)": 22.2
  },
  {
    "Macromolecule Sequence": "GCUAGGUCAUCGGCCGCCACUAACGAUGGCUCCGACAUGAGGAUCACCCAUGUGCCACAUGCGCAUAGGACCGGGAUGACCUAGC",
    "System Tested": "MS2 coat protein",
    "apparent Kd (nM)": 14.3
  },
  {
    "Macromolecule Sequence": "CUACAUUUGUAGAAACCGGUCAACAUUAUUCGAGGACCGGUACGGCCGCCACUCGUAUCAUUUGAUACAUGAGGAUCACCCAUGU",
    "System Tested": "MS2 coat protein",
    "apparent Kd (nM)": 22.6
  }
]

###

Quick reference for apparent Kd among some sequences
Test system: MS2 coat protein
Experiment Notes: apparent Kd, MS2 coat protein; higher = weaker binding; RNA-MaP array; FMN 200 µM where present
Measurement Context: designed as: OFF switch for flavin mononucleotide; no ligand
Assay Metric: apparent Kd (nM)

[
  {
    "Macromolecule Sequence": "AUCAUGAGAGGAUAUACAUGAGGAUCACCCAUGUUGUUAACACCAUGAGCUCAUUUACGUAGAAGGCUCAUUUG",
    "Unit Tag": "nM",
    "Assay Value": 28.1
  },
  {
    "Macromolecule Sequence": "GCAGCAUCUGCAGGAUAUCAGCACGUGUAGUGCUGAGAAGGGCACAUGAGGAUCACCCAUGUGAUCAAUUAAUAUAGAUGCUGC",
    "Unit Tag": "nM",
    "Assay Value": 5.78
  },
  {
    "Macromolecule Sequence": "CUCUUUUAAGGAUAUACAUGAGGAUCACCCAUGUGCAUAGGUAUGUCCGGGUCCUGGAGUAGAAGGUGGGACGG",
    "Unit Tag": "nM",
    "Assay Value": 70.3
  },
  {
    "Macromolecule Sequence": "UGGACUGGGCAGAAGGGACAUGAGGAUCACCCAUGUCUUGGGCUACUUCAGUCAGGAUAUGCCCGUUGAAUAUCCGUGCAUCAA",
    "Unit Tag": "nM",
    "Assay Value": 10.2
  },
  {
    "Macromolecule Sequence": "GUCUGGUUAGGAUAUACAGUGUCCACGAGUUAGUUGCCCUAACAUGAGGAUCACCCAUGUAGAAGGAGCGAGAA",
    "Unit Tag": "nM",
    "Assay Value": 22.2
  },
  {
    "Macromolecule Sequence": "GGAAAUCAUGUAGGAUAUGCAUGGCGAAGCUACGCAGAAGGACAUGAGGAUCACCCAUGUUAUAGCUACCCGUUACGGUGGCAA",
    "Unit Tag": "nM",
    "Assay Value": 131
  },
  {
    "Macromolecule Sequence": "AUCUACCUAGGAUAUACAUGAGGAUCACCCAUGUACAGUUUCAACUAGGGAAACACACGUAGAAGGAGGUAGAU",
    "Unit Tag": "nM",
    "Assay Value": 13.6
  },
  {
    "Macromolecule Sequence": "GUCAGCUCGUGAGGAUAUACAUGAUAGAUCGAUUAAUUAAUUAAUUUAACAUGAGGAUCACCCAUGUAGAAGGUACGAGCUGAU",
    "Unit Tag": "nM",
    "Assay Value": 61.6
  },
  {
    "Macromolecule Sequence": "GCAUGCUAUGUCAGGAUAUACCUCUGGAUACAUAGGUAGAAGGGACAUGAGGAUCACCCAUGUCCUCAUCAUGC",
    "Unit Tag": "nM",
    "Assay Value": 12.4
  },
  {
    "Macromolecule Sequence": "UUUCCACAUGAGGAUCACCCAUGUAAGGAUAUGUAGCGCGGGCUGGUGUCCGAGUGUUACAGAAGGUGCUGGCG",
    "Unit Tag": "nM",
    "Assay Value": 26.3
  },
  {
    "Macromolecule Sequence": "GGUUUAGGCGAAGGAUAUCCGUCGCGAGAUACUGGAGAAGGUCGCCUUAAUACAUGAGGAUCACCCAUGUGGCGGGUGAACCAC",
    "Unit Tag": "nM",
    "Assay Value": 326
  },
  {
    "Macromolecule Sequence": "CCAGGCUUCGAGAAGGACAUGAGGAUCACCCAUGUGCGUGUGAAGCAGCCGUGAGGCUGCAUCAUGUAGGAUAUCGGAGUCUGA",
    "Unit Tag": "nM",
    "Assay Value": 71.8
  },
  {
    "Macromolecule Sequence": "UCCGUGUGAGGAUAUUACGCUGUUCGGGAAACGCUCAUAGGUAAGAAGGCACAUGAGGAUCACCCAUGUCCAUA",
    "Unit Tag": "nM",
    "Assay Value": 23.7
  },
  {
    "Macromolecule Sequence": "GACCGUCACAGUUACCGGUUGAACGAGGAUAUGAUUACUGGGCCUGCACAUGAGGAUCACCCAUGUCAGAAGGCGUUCAGUCCC",
    "Unit Tag": "nM",
    "Assay Value": 5.86
  },
  {
    "Macromolecule Sequence": "ACUAGAUGAGGAUAUGCAUAUUUUCGUGUUCUUCUAGAUUAACAUGAGGAUCACCCAUGUAGAAGGCGUCUGGC",
    "Unit Tag": "nM",
    "Assay Value": 18.6
  },
  {
    "Macromolecule Sequence": "CGUCCACAUGAGGAUCACCCAUGUGAGGAUAUCGAUGUCCCAGGGCGGGUGCGGGACUCGAGAAGGCACUAGGU",
    "Unit Tag": "nM",
    "Assay Value": 32.7
  },
  {
    "Macromolecule Sequence": "GUGGCACAUGAGGAUCACCCAUGUCAGGAUAUCGCGUGGUUUUUUGCGGCCGCGCGCGCGAGAAGGGACGUCUU",
    "Unit Tag": "nM",
    "Assay Value": 39.2
  },
  {
    "Macromolecule Sequence": "AUUAUAUAGAAAGGAUAUAGAAUAUUAUUUUAACAUGAGGAUCACCCAUGUAACCUUAUGUGUAGCUAGAAGGUUCAUUUAUUA",
    "Unit Tag": "nM",
    "Assay Value": 61.8
  },
  {
    "Macromolecule Sequence": "GUAAUUACGAGAGGAUAUUGACAUGAGGAUCACCCAUGUAUUUGGGAGUGUUCACUGAAUUCUUACGAGAAGGCUCGUAAAUAC",
    "Unit Tag": "nM",
    "Assay Value": 213
  },
  {
    "Macromolecule Sequence": "GCCGCUGUAGGAUAUGCCAGGGUGGCAGCUUGAUGUGUGGCACAUGAGGAUCACCCAUGUAGAAGGACAGAAAG",
    "Unit Tag": "nM",
    "Assay Value": 18.7
  },
  {
    "Macromolecule Sequence": "UAGGUCGCAGGAUAUGCUGGGUGCAUAUCUUAGUGCAGGAGACAUGAGGAUCACCCAUGUAGAAGGGCGCGCUG",
    "Unit Tag": "nM",
    "Assay Value": 44.9
  },
  {
    "Macromolecule Sequence": "CCUCCGCAUUAGGAUAUCGUCACGGAAACGUGACGAGAAGGAAUGACAUGAGGAUCACCCAUGUUAACGUGAUG",
    "Unit Tag": "nM",
    "Assay Value": 52.2
  },
  {
    "Macromolecule Sequence": "GCCGAAGGACCCUGACGGGUCGGCUAGGAUAUACAUGAGGAUCACCCAUGUGCGGUUAUUCACGAGUAGAAGGAGCCUCGGCAA",
    "Unit Tag": "nM",
    "Assay Value": 101
  },
  {
    "Macromolecule Sequence": "CUCUUAGCAGGAUAUACAUUAUCCCAGUCAUGGUCGGCGACACAUGAGGAUCACCCAUGUAGAAGGGCUAUGAG",
    "Unit Tag": "nM",
    "Assay Value": 23.4
  },
  {
    "Macromolecule Sequence": "GGGCCCGGUGUGAGGAUAUCGGGUUUGAAAGGGCCCGAGAAGGCACAUGAGGAUCACCCAUGUAAGCCGGGCCC",
    "Unit Tag": "nM",
    "Assay Value": 15.4
  },
  {
    "Macromolecule Sequence": "GUUGCUACUGAGGAUAUUAUUCUACCCGACUGAUAAGAAGGCAGUACAUGAGGAUCACCCAUGUGGGUAGCCAG",
    "Unit Tag": "nM",
    "Assay Value": 16.7
  },
  {
    "Macromolecule Sequence": "GCCUCAGAAUUAAUUGUGAGAGGCAGAAGGCUAUAUCUCGUGGUAAACAUGAGGAUCACCCAUGUAGAGGAUAUGCUAUUACAG",
    "Unit Tag": "nM",
    "Assay Value": 8.25
  },
  {
    "Macromolecule Sequence": "UGAUAGGACAGAGGAUAUACCGAUAGGAUCUACUAUCGAACAAUCCUCACAUGAGGAUCACCCAUGUAGAAGGCUGUCCUAUCU",
    "Unit Tag": "nM",
    "Assay Value": 25.2
  },
  {
    "Macromolecule Sequence": "GUGGUAUUCGUAGGAUAUCCGUCGCCACCGUGUGGAGAAGGACGAACAUGAGGAUCACCCAUGUAUCAUGGUGUGGACGUUGUC",
    "Unit Tag": "nM",
    "Assay Value": 80.2
  }
]
